// each record: one item and its MIC for K. pneumoniae SI-117 producing VIM-1
measured property: MIC

{"compound": "NC1(CN2CCN(C(=O)N[C@H](C(=O)N[C@H]3Cc4cccc(C(=O)O)c4OB3O)c3c(F)cc(O)cc3F)C(=O)C2=O)CC1 (single isomer, unassigned) [Example 122]", "measured property": "MIC", "test value": "32 to 64 µg/mL"}
{"compound": "NC1(CN2CCN(C(=O)N[C@@H](C(=O)N[C@H]3Cc4cccc(C(=O)O)c4OB3O)c3c(F)cc(O)cc3F)C(=O)C2=O)CC1 (single isomer, unassigned) [Example 121]", "measured property": "MIC", "test value": "32 to 64 µg/mL"}
{"compound": "CCN1CCN(C(=O)N[C@@H](C(=O)N[C@H]2Cc3cccc(C(=O)O)c3OB2O)c2cc(F)c(C(=O)O)cc2Cl)C(=O)C1=O (single isomer, unassigned) [Example 148]", "measured property": "MIC", "test value": "> 128 µg/mL"}

###

# Tested on: K. pneumoniae SI-117 producing VIM-1

{"molecule": "NCCN1CCN(C(=O)N[C@H](C(=O)N[C@H]2Cc3cccc(C(=O)O)c3OB2O)c2c(F)cccc2Cl)C(=O)C1=O (single isomer, unassigned)", "MIC": "> 128 µg/mL"}
{"molecule": "C[C@H]1CN(CCN)C(=O)C(=O)N1C(=O)N[C@@H](C(=O)N[C@H]1Cc2cccc(C(=O)O)c2OB1O)c1ncc(O)cc1F", "MIC": "32 to 64 µg/mL"}
{"molecule": "NCCCN1CCN(C(=O)N[C@@H](C(=O)N[C@H]2Cc3cccc(C(=O)O)c3OB2O)c2ccc(O)c(F)c2F)C(=O)C1=O (single isomer, unassigned)", "MIC": "0.5 to 1 µg/mL"}
{"molecule": "CCN1CCN(C(=O)NC(C(=O)N[C@H]2Cc3cccc(C(=O)O)c3OB2O)c2cccc(N)c2)C(=O)C1=O (some centres unmarked)", "MIC": "> 128 µg/mL"}
{"molecule": "O=C(O)c1cccc2c1OB(O)[C@@H](NC(=O)C(NC(=O)N1CCN(CCF)C(=O)C1=O)c1c(F)cc(O)cc1F)C2 (mixture of isomers)", "MIC": "32 to 64 µg/mL"}
{"molecule": "NCCN1CCN(C(=O)N[C@H](C(=O)N[C@H]2Cc3cccc(C(=O)O)c3OB2O)c2c(Cl)cccc2Cl)C(=O)C1=O (single isomer, unassigned)", "MIC": "> 128 µg/mL"}
{"molecule": "NCCN1CCN(C(=O)N[C@@H](C(=O)N[C@H]2Cc3cccc(C(=O)O)c3OB2O)c2cc(F)c(O)c(F)c2)C(=O)C1=O (single isomer, unassigned)", "MIC": "32 to 64 µg/mL"}
{"molecule": "C[C@H]1CN(CCN)C(=O)C(=O)N1C(=O)N[C@@H](C(=O)N[C@H]1Cc2cccc(C(=O)O)c2OB1O)c1ccc(O)c(F)c1F", "MIC": "2 to 4 µg/mL"}
{"molecule": "N=C(N)NCCN1CCN(C(=O)NC(C(=O)N[C@H]2Cc3ccc(F)c(C(=O)O)c3OB2O)c2ncc(O)cc2F)C(=O)C1=O (some centres unmarked)", "MIC": "32 to 64 µg/mL"}
{"molecule": "CCN1CCN(C(=O)NC(C(=O)N[C@H]2Cc3cccc(C(=O)O)c3OB2O)c2ccc(N)c(F)c2)C(=O)C1=O (some centres unmarked)", "MIC": "> 128 µg/mL"}
{"molecule": "NCCCN1CCN(C(=O)N[C@@H](C(=O)N[C@H]2Cc3ccc(F)c(C(=O)O)c3OB2O)c2ncc(O)cc2F)C(=O)C1=O", "MIC": "32 to 64 µg/mL"}
